Provide the reported binding signal of each item.
Target: T1, RBFOX1 RRM RbFoxmut (Fox-RRM*) (Homo sapiens, UniProt Q9NWB1 109-208, R118D;E147R;N151S;E152T)
T1 sequence: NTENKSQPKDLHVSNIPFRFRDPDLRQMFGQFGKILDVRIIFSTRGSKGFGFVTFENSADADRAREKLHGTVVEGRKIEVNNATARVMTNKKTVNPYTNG
Experiment: EMSA; HiTS-Eq, 1 nM pool, 10 min; buffer printed only for the single-RNA assays: 10 mM Tris pH 7.5, 150 mM NaCl, 3.4 mM EDTA, 0.001% NP-40, 30 C
Settings: tags: His6 N-terminal (pET28a); label: 5' 32P
Over roughly 16,000 sequences, “ka relative to ugcaugu” has its median near 0.096; the highest 2% begin near 0.35. The full list was thinned out, with the highest values kept by preference.

Look over these answered cases.
GGCGUCG (DNA:RNA) RNA: GGGAGACCGGAAUUCAGAUUGUCCGGCGUCGUUAAAUCCCGUCGUAGCCACCA DNA 1: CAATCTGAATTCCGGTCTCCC DNA 2: TGGTGGCTACGACGGGATT = 0.203 KA relative to UGCAUGU
GAAUCGA (DNA:RNA) RNA: GGGAGACCGGAAUUCAGAUUGUCCGAAUCGAUUAAAUCCCGUCGUAGCCACCA DNA 1: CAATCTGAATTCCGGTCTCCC DNA 2: TGGTGGCTACGACGGGATT = 0.561 KA relative to UGCAUGU
GGAAUCA (DNA:RNA) RNA: GGGAGACCGGAAUUCAGAUUGUCCGGAAUCAUUAAAUCCCGUCGUAGCCACCA DNA 1: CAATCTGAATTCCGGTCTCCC DNA 2: TGGTGGCTACGACGGGATT = 0.426 KA relative to UGCAUGU

Consider the binder shown here: CCCGGCG (DNA:RNA) RNA: GGGAGACCGGAAUUCAGAUUGUCCCCCGGCGUUAAAUCCCGUCGUAGCCACCA DNA 1: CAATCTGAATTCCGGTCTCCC DNA 2: TGGTGGCTACGACGGGATT What is its recorded binding signal?
0.098 KA relative to UGCAUGU
